Source of measurements: patent US20010039255A1

system under test: UniProt P23944
# reported pKi; entries follow
Expect pKi as a plain number equal to -log10 of the molar concentration.

- compound: "CS(=O)(=O)Nc1c(O)ccc2c1CCCC2C1=NCCN1 (stereo not drawn) [Compound A-61603, reference compound]"
  pKi: 5.81
- compound: "CCS(=O)(=O)Nc1cccc(Cc2c[nH]cn2)c1C"
  pKi: 6.08

Here's the next entry for you.
For the record CCS(=O)(=O)Nc1cccc(Cc2c[nH]cn2)c1 , what value of pKi is listed for UniProt P23944?
6.54

###

system under test: α1A (rat submaxillary gland) (Rattus norvegicus)
Sequence (P43140 1-466): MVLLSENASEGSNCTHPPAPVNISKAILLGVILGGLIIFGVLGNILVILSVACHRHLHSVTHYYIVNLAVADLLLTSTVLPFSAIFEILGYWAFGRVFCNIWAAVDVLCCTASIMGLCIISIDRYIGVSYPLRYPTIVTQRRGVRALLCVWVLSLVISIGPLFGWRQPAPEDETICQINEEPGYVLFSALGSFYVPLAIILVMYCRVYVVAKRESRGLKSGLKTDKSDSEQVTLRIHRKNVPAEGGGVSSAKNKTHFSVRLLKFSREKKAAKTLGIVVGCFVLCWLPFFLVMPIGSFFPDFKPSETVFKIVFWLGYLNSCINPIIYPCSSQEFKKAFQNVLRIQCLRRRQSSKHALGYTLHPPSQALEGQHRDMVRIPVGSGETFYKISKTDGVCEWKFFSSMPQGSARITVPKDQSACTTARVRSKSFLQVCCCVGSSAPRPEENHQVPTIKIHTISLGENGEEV
# reported Ki; entries follow
# value in nM; strip the unit string

- compound: "CCS(=O)(=O)Nc1cccc(Cc2c[nH]cn2)c1 [Compound A-286666]"
  value units: "nM"
  Ki: 137

Form field: reported Ki of CCS(=O)(=O)Nc1cccc(Cc2c[nH]cn2)c1C [Compound A-286569]
150

###

system under test: α1b (hamster receptor expressed in mouse fibroblasts) (Mesocricetus auratus, UniProt P18841)
Construct: expressed in transfected cells; host or cells: mouse fibroblasts
Sequence (P18841 1-515): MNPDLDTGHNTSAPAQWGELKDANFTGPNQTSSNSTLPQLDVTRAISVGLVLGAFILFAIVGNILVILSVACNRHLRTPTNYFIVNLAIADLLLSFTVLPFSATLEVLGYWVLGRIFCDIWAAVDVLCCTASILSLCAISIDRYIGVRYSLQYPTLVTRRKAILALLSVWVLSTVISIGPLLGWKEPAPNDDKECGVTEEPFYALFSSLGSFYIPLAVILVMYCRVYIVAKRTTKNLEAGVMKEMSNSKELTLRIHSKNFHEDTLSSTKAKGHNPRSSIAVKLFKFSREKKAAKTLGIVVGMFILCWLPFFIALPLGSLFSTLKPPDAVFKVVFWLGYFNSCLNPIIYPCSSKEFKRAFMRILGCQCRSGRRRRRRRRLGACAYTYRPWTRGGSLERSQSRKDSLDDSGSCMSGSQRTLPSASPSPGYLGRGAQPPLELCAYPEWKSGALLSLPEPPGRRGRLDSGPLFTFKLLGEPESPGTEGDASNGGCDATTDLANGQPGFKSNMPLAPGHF
test summary: Radioligand binding with [3H]-prazosin, α1b (hamster receptor expressed in mouse fibroblasts)
experimental context: hamster receptor expressed in mouse fibroblasts, [3H]-prazosin; read-out: Radioligand Binding Ki α1b (Hamster)
endpoint label: Ki (µM)
# value in µM; strip the unit string

Form field: reported Ki of CS(=O)(=O)Nc1c(O)ccc2c1CCCC2C1=NCCN1 (stereo not shown) [Compound A-61603, reference compound]
1.21

###

system under test: α1b (hamster receptor expressed in mouse fibroblasts) (Mesocricetus auratus, UniProt P18841)
Construct: expressed in transfected cells; host or cells: mouse fibroblasts
test summary: Radioligand binding with [3H]-prazosin, α1b (hamster receptor expressed in mouse fibroblasts)
# reported Ki; entries follow

- substance smiles: "CCS(=O)(=O)Nc1cccc(Cc2c[nH]cn2)c1"
  Ki: "913 nM"

Here's the next entry for you.
Form field: reported Ki of CCS(=O)(=O)Nc1cccc(Cc2c[nH]cn2)c1C
> 10000 nM

###

system under test: α1D adrenoceptor (rat aorta) (Rattus norvegicus, UniProt P23944)
Sequence (P23944 1-561): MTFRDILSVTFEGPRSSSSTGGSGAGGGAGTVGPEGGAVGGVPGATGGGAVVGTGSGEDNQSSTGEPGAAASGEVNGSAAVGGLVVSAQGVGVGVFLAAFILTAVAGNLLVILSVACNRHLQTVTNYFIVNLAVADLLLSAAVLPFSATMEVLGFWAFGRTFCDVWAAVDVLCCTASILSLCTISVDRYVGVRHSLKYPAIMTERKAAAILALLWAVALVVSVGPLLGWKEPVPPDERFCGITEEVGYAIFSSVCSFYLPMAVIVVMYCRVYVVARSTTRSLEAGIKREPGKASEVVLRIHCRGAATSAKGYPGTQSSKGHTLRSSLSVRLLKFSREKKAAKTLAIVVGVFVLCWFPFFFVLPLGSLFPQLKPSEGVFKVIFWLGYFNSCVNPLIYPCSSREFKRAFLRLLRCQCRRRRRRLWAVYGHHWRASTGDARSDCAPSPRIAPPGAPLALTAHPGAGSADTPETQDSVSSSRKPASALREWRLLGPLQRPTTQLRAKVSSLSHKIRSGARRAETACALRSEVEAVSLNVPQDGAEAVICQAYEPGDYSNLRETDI
test summary: cell-based
endpoint label: pEC50
Expect pEC50 as a plain number equal to -log10 of the molar concentration.

Form field: reported pEC50 of CS(=O)(=O)Nc1c(O)ccc2c1CCCC2C1=NCCN1 (stereo not shown) [Compound A-61603, reference compound]
5.60
